Each recorded value in this set is attributed to paper PMC12029179.

# Test details: Host-cell metabolic activity (MTS assay) in Huh 5-2 cells
# Assay type: cell-based
# Setup conditions: human, primary screening, tested starting at 50 μg/mL
Measured parameter: CC50

[[record]]
compound = "O=c1oc2ccc(Cl)cc2cc1CSc1ccn([C@@H]2O[C@H](CO)[C@@H](O)[C@H]2O)c(=O)n1 [Compound 16a]"
test_result = "> 108 µM"


# batch: return CC50 for each of the 5 compounds below
1. O=c1oc2ccc(Cl)cc2cc1CSc1ncnc2[nH]cnc12 [Compound 7a]
2. O=c1ccnc(SCc2cc3cc(Cl)ccc3oc2=O)[nH]1 [Compound 18]
3. Nc1nc2[nH]c(SCc3cc4cc(Cl)ccc4oc3=O)nc2c(=O)[nH]1 [Compound 5b]
4. Nc1ncnc2c1nc(SCc1cc3cc(Cl)ccc3oc1=O)n2[C@@H]1O[C@H](CO)[C@@H](O)[C@H]1O [Compound 3b]
5. Nc1nc2c(nc(SCc3cc4cc(Cl)ccc4oc3=O)n2[C@@H]2O[C@H](CO)[C@@H](O)[C@H]2O)c(=O)[nH]1 [Compound 5a]

Completion:
1. > 145 µM
2. > 156 µM
3. > 133 µM
4. 48 µM
5. > 98 µM

Batch: CC50 for all items listed.
1. Cc1cn([C@H]2C[C@H](O)[C@@H](CO)O2)c(=O)nc1SCc1cc2cc(Cl)ccc2oc1=O [Compound 16b]
2. O=c1oc2ccc(Cl)cc2cc1CSc1ncnc2c1ncn2[C@@H]1O[C@H](CO)[C@@H](O)[C@H]1O [Compound 7b]
3. Nc1nc(SCc2cc3cc(Cl)ccc3oc2=O)c2nc[nH]c2n1 [Compound 9a]

Completion:
> 111 µM
> 105 µM
> 139 µM

---

# System: HCV genotype 1b subgenomic replicon
# Test details: Anti-HCV assay in Huh 5-2 cells (luciferase replicon readout)
# Assay type: cell-based, hepatitis C virus (HCV)
# Setup conditions: Huh 5-2 cells; primary screening starting at 50 μg/mL
For each entry below, report its SI (CC50/EC50) value.

Consider the worked cases shown below.
[[record]]
molecule = "O=c1oc2ccc(Cl)cc2cc1CSc1ncnc2c1ncn2[C@@H]1O[C@H](CO)[C@@H](O)[C@H]1O"
measured_parameter = "SI (CC50/EC50)"
test_result = ">12"

[[record]]
molecule = "Cc1cn([C@H]2C[C@H](O)[C@@H](CO)O2)c(=O)nc1SCc1cc2cc(Cl)ccc2oc1=O [Compound 16b]"
measured_parameter = "SI (CC50/EC50)"
test_result = ">1.9"

[[record]]
molecule = "O=c1nc(SCc2cc3cc(Cl)ccc3oc2=O)cc[nH]1 [Compound 11a]"
measured_parameter = "SI (CC50/EC50)"
test_result = ">8.6"


In the following, a different molecule is considered.
Simply: Nc1ccnc(SCc2cc3cc(Cl)ccc3oc2=O)n1 , HCV genotype 1b subgenomic replicon, SI (CC50/EC50) = >2.9

---

# System: HCV genotype 1b subgenomic replicon
# Test details: Anti-HCV assay in Huh 5-2 cells (luciferase replicon readout)
# Type: cell-based, hepatitis C virus (HCV)
# Setup conditions: Hepatitis C virus, Huh-5-2, Huh 5-2 cells; primary screening, tested starting at 50 μg/mL; luminescence
Note that class boundaries on EC50 are low value = under 20 µM, medium value = from 20 µM up to 50 µM, high value = 50 µM and over

These solved cases illustrate the format of a correct answer.
[[record]]
compound = "Nc1nc(SCc2cc3cc(Cl)ccc3oc2=O)c2nc[nH]c2n1 [Compound 9a]"
group = "high value"

[[record]]
compound = "O=c1oc2ccc(Cl)cc2cc1CSc1ccn([C@@H]2O[C@H](CO)[C@@H](O)[C@H]2O)c(=O)n1 [Compound 16a]"
group = "low value"

[[record]]
compound = "Nc1ncnc2[nH]c(SCc3cc4cc(Cl)ccc4oc3=O)nc12 [Compound 3a]"
group = "low value"


Prompt: Which class does O=c1nc(SCc2cc3cc(Cl)ccc3oc2=O)cc[nH]1 [Compound 11a] fall in?
Completion: low value

Prompt: Input O=c1ccnc(SCc2cc3cc(Cl)ccc3oc2=O)[nH]1 [Compound 18] ; output its category
Completion: medium value

Prompt: Please report the category associated with Cc1cn([C@H]2C[C@H](O)[C@@H](CO)O2)c(=O)nc1SCc1cc2cc(Cl)ccc2oc1=O [Compound 16b] , nothing else.
Completion: high value
